system: MCF7 breast; assay: NCI-60 one-dose screen, 48 h; conditions: 10 µM unless noted
The panel holds about 83,000 compounds, 20% with a hit somewhere; the sample as a whole holds those more often. Activity calls are given as the source filed them. Rule for the calls: active = growth percent below 10; inactive = the rest.
Select the matching outcome among yes for active, no for inactive

Here are 8 molecules together with their reported answers.
MOLECULE: CC(=O)OC[C@H]1OC(Sc2sc(C(=O)c3ccc(Br)cc3)c(N)c2-c2nc3ccccc3s2)[C@H](OC(C)=O)[C@@H](OC(C)=O)[C@@H]1OC(C)=O (stereo not given in full)
CLASS NAME: no
--
MOLECULE: CCN(CC)S(=O)(=O)c1cccc(-c2ccc3c(NC(=O)C4CC4)n[nH]c3c2)c1
CLASS NAME: yes
--
MOLECULE: O=C(CSc1nnc(-c2ccc(NC(=O)c3cccnc3)cc2)o1)N[C@@H](Cc1ccc(O)cc1)C(=O)O
CLASS NAME: no
--
MOLECULE: COc1ccc2c(c1)CCCN2c1c2ccccc2nc2ccccc12
CLASS NAME: no
--
MOLECULE: Cc1nc2ccccc2n1CC1NC(=O)NC1=O (stereo not given)
CLASS NAME: no
--
MOLECULE: O=C(/C=C/c1c(Cl)nc2sccn12)c1ccc(F)c(F)c1
CLASS NAME: no
--
MOLECULE: COc1ccc(CN2C(=O)C(Cl)=C(Nc3cccc(C(F)(F)F)c3)C2=O)cc1
CLASS NAME: no
--
MOLECULE: O=C(c1ccc(Nc2nccc(NCCCCNc3ccnc4cc(Cl)ccc34)n2)cc1)N1CCCCC1
CLASS NAME: yes

Lookup: # lookup: test call for `Cc1cccc(Cc2cnc(NC(=O)c3ccc4nnsc4c3)s2)c1`
Found: no

Lookup: Can you look up the reported call for CNC(=O)NCC1OC(n2cnc3c(NC(=O)Nc4ccccc4)ncnc32)C(O[Si](C)(C)C(C)(C)C)C1CC(=O)N(C)OC (stereo not given) for me?
Found: yes

Lookup: What did the test return for CN(C)CC1=NC2SC=C(c3ccccc3)C2C(=O)N1CC#N (stereo not given) ?
Found: no

Lookup: In this assay, the call recorded for COc1cc2c(cc1-c1c(C)noc1C)ncc1nc(C3CCCCC3)n(C3CCC(OC(F)F)CC3)c12 (stereo not given) was what?
Found: no

Lookup: Would you mind telling me which call this test gave Nc1n[nH]c2cc(F)c([C@@H]3Nc4c(F)cc5[nH]ncc5c4[C@H]4C5CCC(C5)[C@@H]34)cc12 (stereo not given in full) ?
Found: no

Lookup: Each molecule tested received a call. Report the one for `Cc1cc(Cl)nc(NCc2cc(Nc3ccnc4cc(Cl)ccc34)ccc2F)n1` .
Found: no

Lookup: How was CC1SC(c2ccc(OCc3ccccc3)cc2)N(NC(=O)C(O)(c2ccccc2)c2ccccc2)C1=O (stereo not given) classified in this test?
Found: no

Lookup: Record request — test call for COc1cc(OC)cc(C2CC(=O)Nc3c2c(C)nn3-c2nc3ccccc3[nH]2)c1 (stereo not given)
Found: yes

Lookup: Write down the call the test reported for this molecule. Item: `c1csc(-c2c3ccc(=[N+]4CCCCC4)cc-3oc3cc(N4CCCCC4)ccc23)c1`
Found: yes

Lookup: Dear colleague, could you share the recorded outcome for `O=C(/C=C/c1ccc(Cl)nc1)c1ccc(Cl)cc1Cl` when you have a moment?
Found: no

Lookup: For `Cc1occc1-c1n[nH]c(=S)n1N1C(=O)CSC1=S` , which call appears in the assay record?
Found: no

Lookup: Identify the outcome logged in this assay for the molecule shown: `O=C(Nc1cccc(C(F)(F)F)c1)Nc1cccc(C(F)(F)F)c1`
Found: yes

Lookup: What did the test return for `COc1cc(/C=C/C(=O)c2c(C)nc3ccccc3c2/C=C/c2ccc(C)cc2)cc(OC)c1OC` ?
Found: no

Lookup: Outcome? `COc1ccc(-c2nc(SCCC(C)C)nc(N/N=C\c3cccc([N+](=O)[O-])c3)c2C#N)cc1`
Found: no

Lookup: What call does the record list for `CCN(CC)c1nc(SCC(=O)Nc2nc3ccc(C)cc3s2)nc(-c2ccccc2)c1C#N` ?
Found: no

Lookup: Could you kindly confirm the outcome this assay logged for `NC(=O)c1ccc[n+](Cc2ccc(Cl)cc2Cl)c1` ?
Found: no
